This collection of values is drawn from patent US20200017592A1.

TARGET_SYSTEM: T1, human IL-36R extracellular domain expressed with a C-terminal myc-myc-hexahistidine tag (hIL-36R-MMH) (human, UniProt Q9HB29 20-337)
T1 construct: also called Human IL-36R-MMH; REGN2105
T1 sequence (Q9HB29 other isoform, or with tags, fused parts or gaps limits assumed): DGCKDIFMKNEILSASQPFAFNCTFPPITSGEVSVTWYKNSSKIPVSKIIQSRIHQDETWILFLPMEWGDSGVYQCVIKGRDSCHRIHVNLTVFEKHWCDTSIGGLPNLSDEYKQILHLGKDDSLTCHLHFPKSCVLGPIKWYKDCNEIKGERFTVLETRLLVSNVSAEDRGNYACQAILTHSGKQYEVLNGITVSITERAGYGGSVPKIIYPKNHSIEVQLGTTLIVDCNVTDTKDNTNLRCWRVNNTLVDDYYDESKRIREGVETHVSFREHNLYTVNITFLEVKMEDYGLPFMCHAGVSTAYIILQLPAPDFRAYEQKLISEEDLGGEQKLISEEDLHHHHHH
METHOD_DESCRIPTION: SPR Biacore T200, mAb captured on anti-hFc, 25C, PBS-T pH 7.4 running buffer
Entries and their measured t1/2 follow.

BINDER | t1/2, min
H4H14728P (antibody, human IgG4 S228P, kappa, V domains shown, Fully human anti-IL-36R antibody) VH: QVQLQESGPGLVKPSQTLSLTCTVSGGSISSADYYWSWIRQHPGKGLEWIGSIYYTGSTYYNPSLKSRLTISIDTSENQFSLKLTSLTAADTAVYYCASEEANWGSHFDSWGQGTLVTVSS VL: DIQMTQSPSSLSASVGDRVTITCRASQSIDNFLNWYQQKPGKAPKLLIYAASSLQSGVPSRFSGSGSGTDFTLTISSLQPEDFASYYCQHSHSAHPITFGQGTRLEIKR | 13
H4H14708P2 (antibody, human IgG4 S228P, kappa, V domains shown, Fully human anti-IL-36R antibody) VH: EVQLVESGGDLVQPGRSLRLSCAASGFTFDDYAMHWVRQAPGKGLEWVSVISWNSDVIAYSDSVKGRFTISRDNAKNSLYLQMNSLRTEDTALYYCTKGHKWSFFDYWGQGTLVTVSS VL: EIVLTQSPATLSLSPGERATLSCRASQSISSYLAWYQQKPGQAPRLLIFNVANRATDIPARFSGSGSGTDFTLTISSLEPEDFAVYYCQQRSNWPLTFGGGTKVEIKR | 15
